# experimental.protocol: gradient 5% acetonitrile 3 min, to 50% in 2 min, to 85% in 15 min, held 3 min, 100 µL/min
# condition.label: column: Zorbax Extend-C18 2.1 x 50 mm; eluents: water / acetonitrile, 0.1% formic acid
experimental.readout: RP-LC retention time (s)

COC(=O)C1=CN(C2CC2)c2cc(N3CCN(C4CCCCC4)CC3)c(F)cc2S1(=O)=O	643
COc1ccc(Cc2nc3nccc(-c4ccc(OC)cc4)n3n2)cc1	878
CCCn1c(=O)sc2cc(S(=O)(=O)N3CCC(C(=O)Nc4ccc(F)cc4C)CC3)ccc21	974
O=C(CN1C(=O)C(C(=O)N2CCCC2)Sc2ccccc21)NC1CCN(Cc2ccccc2)CC1 (stereo not given)	663
CCOC(=O)c1nc(NCc2ccc(OC(C)C)cc2)c2c(C)noc2n1	1000
COc1ccc(CCNC(=O)Nc2nnc(-c3ccc(F)cc3F)o2)cc1	788
CCN(CC)C(=O)c1cnc2snc(C)c2c1N1CCC(C(=O)Nc2c(C)cc(C)cc2C)CC1	901
CCCNC(=O)N(C1CCOCC1)C1CCN(C(=O)c2ccc(C)s2)CC1	747
Cc1nc2ccn(Cc3cccnc3)c(=O)c2cc1C(=O)NCc1ccc2c(c1)OCO2	592
O=C(NCCS(=O)(=O)N1CCc2ccccc2C1)C1CC1	695
Cc1ccc(-c2nc(C)c(C(=O)N3CCCC3)s2)cc1	906
COc1ccc(Nc2c(-c3ccc(SC)cc3)nc3ncccn23)cc1OC	702
CCCn1cc(CCNC(=O)Nc2ccc(Br)c(C)c2)c2cccnc21	902
CC1CCC(NC(=O)CN2C(=O)CCCc3cc(S(=O)(=O)N4CCCCC4)ccc32)CC1 (stereo not given)	945
CCc1ccccc1NC(=O)NCC1CCOCC1	705
Cc1nc(-c2ccccc2)nc2c1CC(=O)N2Cc1cccnc1	616
CC(C)n1cnc(S(=O)(=O)N2CCC(C(=O)N3CCN(c4ccccc4)CC3)CC2)c1	754
CCOC(=O)c1c(C)[nH]c(CCC(=O)NCc2cccs2)c1C	746
COC(=O)C1=C(CN2CCN(C)CC2)NC(=O)NC1c1ccccc1Cl (stereo not given)	597
CCOC(=O)C1CCc2sc(NC(=O)C3COCC(=O)N3Cc3ccccc3)nc21 (stereo not given)	730

---

# experimental.protocol: gradient 5% acetonitrile 3 min, to 50% in 2 min, to 85% in 15 min, held 3 min, 100 µL/min
# condition.label: column: Zorbax Extend-C18 2.1 x 50 mm; eluents: water / acetonitrile, 0.1% formic acid
experimental.readout: RP-LC retention time (s)

The examples below pair each entry with its known result.
CCS(=O)(=O)Nc1ccc(C2(C(=O)NCc3cccc(F)c3)CCCCC2)cc1	933
COc1ccc(CNC(=O)NCC2CCN(S(=O)(=O)C3CC3)CC2)cc1	662
COc1ccc(-c2noc(Cc3nnc(-c4ccc(Cl)cc4)o3)n2)cc1	1060
Cc1ccc(OCCC2CCNC2)cc1 (stereo not given)	646
O=C(CN1c2ccc(F)cc2-c2ccccc2S1(=O)=O)Nc1ccc(F)c(F)c1	974
CCS(=O)(=O)N1CC(=O)N(c2ccc(C)cc2)C(C)(C(=O)NCc2ccc(F)cc2)C1 (stereo not given)	834
O=C(NC1CCCC1)C1CCCN(c2ccc(=O)n(-c3cccc(F)c3)n2)C1 (stereo not given)	784
OC[C@@H]1CN(C2CCCC2)C[C@H]1c1nc(-c2ccncc2)no1	553

[1] Cc1ccc(-c2c(C(=O)NCCN3CCOCC3)nc3ccccn23)cc1
[2] Cc1cccc(CNC(=O)C2(C)Oc3cccnc3N(C(C)C)C2=O)c1 (stereo not given)
// which entry has the larger RP-LC retention time value, 1 or 2 ? Answer by quoting the chosen item's label.
2
(2: 1120 s, 1: 616 s)

---

# experimental.protocol: gradient 5% acetonitrile 3 min, to 50% in 2 min, to 85% in 15 min, held 3 min, 100 µL/min
# condition.label: column: Zorbax Extend-C18 2.1 x 50 mm; eluents: water / acetonitrile, 0.1% formic acid
experimental.readout: RP-LC retention time (s)

The examples below pair each entry with its known result.
CCC(C)NC(=O)Cn1c(=O)ccc2cc(S(=O)(=O)N3CCC(C)CC3)ccc21 (centres undefined)	833
Cc1nnc(N2CCCC(C(=O)NCc3ccccc3F)C2)c2nn(-c3ccc(Cl)cc3)c(C)c12 (centres undefined)	771
CCc1cccc(Nc2nc3ccncc3n(Cc3ccccc3)c2=O)c1	742

[P] Cn1nc2c(c1NC(=O)C1CCCN1S(=O)(=O)c1ccc(F)cc1)CCC2 (centres undefined)
[Q] Cc1cccc(-c2noc(C3CCCN3C(=O)Nc3ccccc3C)n2)c1 (centres undefined)
// which entry has the larger RP-LC retention time value, P or Q ? Answer by quoting the chosen item's label.
Q

[I] CSc1ccccc1NC(=O)C(=O)NCCn1nc(-c2ccco2)ccc1=O
[II] COc1ccc(NC(=O)c2cc(C(C)C)n3nccc3n2)c(C)c1
// which entry has the larger RP-LC retention time value, I or II ? Answer by quoting the chosen item's label.
II

[a] CC(=O)Nc1ccc(C2(C(=O)NCc3ccc4c(c3)OCO4)CCC2)cc1
[b] Cc1ccc(S(=O)(=O)N2CCCCCC2)cc1-c1nnc(-c2ccc(F)cc2)o1
// which entry has the larger RP-LC retention time value, a or b ? Answer by quoting the chosen item's label.
b

---

# experimental.protocol: gradient 5% acetonitrile 3 min, to 50% in 2 min, to 85% in 15 min, held 3 min, 100 µL/min
# condition.label: column: Zorbax Extend-C18 2.1 x 50 mm; eluents: water / acetonitrile, 0.1% formic acid
experimental.readout: RP-LC retention time (s)

CCCNC(=O)CCc1cc2cc(OC)ccc2[nH]c1=O	634
CC1=C(C(=O)OCCc2ccccc2)C(c2ccc(C)s2)NC(=O)N1 (stereo not given)	859
O=C(Nc1cc(C(F)(F)F)cc(C(F)(F)F)c1)c1ccc(=O)[nH]n1	814
CCCN1N=C(C(=O)N2CCOCC2)S(=O)(=O)c2cc(Cl)ccc21	813
CC1=C(c2ccc(C)cc2)S(=O)(=O)N=C1N1CCCN(C(=O)CC(C)C)CC1	855
CN(C)CCCNC(=O)C1CCN(c2nc3ccc(-c4cccs4)nc3s2)CC1	647
CCOC(=O)c1nc(Nc2cc(F)ccc2F)c2ccccc2n1	912
CC(C)C(=O)NCCc1csc(C2CCCN(C(=O)C3CCC3)C2)n1 (stereo not given)	711
O=C(Cn1cccc(-c2nc(-c3ccc(F)cc3)no2)c1=O)Nc1ccccc1Br	912
CNC(=O)Nc1cc(C)n(Cc2ccccc2)n1	738

---

# experimental.protocol: gradient 5% acetonitrile 3 min, to 50% in 2 min, to 85% in 15 min, held 3 min, 100 µL/min
# condition.label: column: Zorbax Extend-C18 2.1 x 50 mm; eluents: water / acetonitrile, 0.1% formic acid
experimental.readout: RP-LC retention time (s)

COc1ccc(OC)c(NC(=O)CN2C(=O)NC(c3ccc(Cl)cc3)C3=C2COC3=O)c1 (stereo not given)	790
CCC(NC(=O)c1nnc(-c2ccc(S(=O)(=O)N(C)C)cc2)o1)c1cccs1 (stereo not given)	912
Cc1ccc(NC(=O)N2CCC3(C2)c2nc[nH]c2CCN3C)c(C)c1 (stereo not given)	568
CCOC(=O)C1CCN(C(=O)c2ccc3c(c2)CCCN3S(C)(=O)=O)CC1	765
O=C(C1CCN(S(=O)(=O)c2ccc3nc(-c4ccccc4)[nH]c3c2)CC1)N1CCCC1	699

---

# experimental.protocol: gradient 5% acetonitrile 3 min, to 50% in 2 min, to 85% in 15 min, held 3 min, 100 µL/min
# condition.label: column: Zorbax Extend-C18 2.1 x 50 mm; eluents: water / acetonitrile, 0.1% formic acid
experimental.readout: RP-LC retention time (s)

The examples below pair each entry with its known result.
O=C(c1cc(F)ccc1F)N1CCC2(CC1)NC(=O)N(Cc1ccc(Cl)cc1)C2=O	890
CC1(C(=O)NCc2ccc(F)cc2)CCN(C(=O)Nc2ccc3c(c2)OCCO3)CC1	653
O=C1C2N=NN(Cc3nc(-c4ccc(Cl)cc4)no3)C2C(=O)N1c1ccc(F)cc1 (stereo not given)	1030
CCn1nccc1-c1cccc(-c2noc(-c3ccccn3)n2)c1	897
CCc1sc(NC(=O)c2cc3c([nH]c2=O)CC(C)(C)CC3=O)nc1-c1ccc(C)c(C)c1	1150
Cc1noc(C)c1-c1ccc(S(=O)(=O)Nc2cccc(F)c2)cc1	916

[1] O=C(NCCCN1CCCCC1)c1ccc(-c2ccnc(N3CCCC3)n2)cc1
[2] CCCC(CCC)C(=O)NCc1nnnn1-c1ccc(OCC)cc1
Of 1 and 2 , which shows the smaller RP-LC retention time value? Answer by quoting the chosen item's label.
1

---

# experimental.protocol: gradient 5% acetonitrile 3 min, to 50% in 2 min, to 85% in 15 min, held 3 min, 100 µL/min
# condition.label: column: Zorbax Extend-C18 2.1 x 50 mm; eluents: water / acetonitrile, 0.1% formic acid
experimental.readout: RP-LC retention time (s)

The examples below pair each entry with its known result.
Cc1csc(NC(=O)c2ccc(Br)cc2)n1	902
COc1ccccc1NC(=O)C1CCN(S(=O)(=O)c2c(C)nn(-c3ccccc3)c2C)CC1	981
CCOc1cc(-c2ccc(F)cc2)nc2ccc(NS(=O)(=O)c3cccc(C#N)c3)cc12	816

[a] CC1CCN(C(=O)C2CCN(c3nc4ccc(-c5ccccc5)nc4s3)CC2)CC1
[b] COc1ccc(S(=O)(=O)N2CCN(c3cc(C)nc(N4CCOCC4)n3)CC2)cc1Cl
// which entry has the larger RP-LC retention time value, a or b ? Answer by quoting the chosen item's label.
a

Source listed as the METLIN SMRT retention time set (Domingo-Almenara et al. 2019).
